Test system: Magnaporthe grisea (Pyricularia oryzae)
experiment: whole plant or invertebrate
Type: in vivo
protocol_conditions: foliar, read-out: percent disease control compared to untreated
compounds and their reported pest or weed control at 200 ppm
assay_metric: pest or weed control at 200 ppm

compound: COc1ccnc(C(=O)N[C@@H](C)C(=O)OC(C)C(C)(C)c2ccc(Br)cc2)c1O (stereo partly drawn)
assay_metric: pest or weed control at 200 ppm
value: ≥ 80%
--
compound: COc1ccnc(C(=O)N[C@@H](C)C(=O)OC(C)C2(c3ccccc3)CCCCC2)c1O (stereo partly drawn)
assay_metric: pest or weed control at 200 ppm
value: ≥ 80%
--
compound: COc1ccnc(C(=O)N[C@@H](C)C(=O)O[C@@H](C)C2(c3cccc4ccccc34)CC2)c1OC(C)=O
assay_metric: pest or weed control at 200 ppm
value: ≥ 80%

* * *

Test system: Puccinia recondita f. sp. tritici
experiment: Puccinia recondita f. sp. tritici / wheat / leaf disc preventative (Brown rust)
Assay type: in vivo
protocol_conditions: foliar, 200 ppm in the applied formulation, wheat leaf segments cv. Kanzler, inoculated 1 day after application, assessed 7-9 days after application, read-out: percent disease control compared to untreated
molecules and their reported pest or weed control at 200 ppm
assay_metric: pest or weed control at 200 ppm

molecule: COc1ccnc(C(=O)N[C@@H](C)C(=O)OC(C)C(C)(C)c2ccc(Br)cc2)c1O (stereo partly drawn)
assay_metric: pest or weed control at 200 ppm
value: ≥ 80%

molecule: COc1ccnc(C(=O)N[C@@H](C)C(=O)OC(C)C(C)n2ccc3c(F)ccc(Br)c32)c1OC(C)=O (stereo partly drawn)
assay_metric: pest or weed control at 200 ppm
value: ≥ 80%

molecule: COc1ccnc(C(=O)N[C@@H](C)C(=O)O[C@@H](C)C2(c3cccc4ccccc34)CC2)c1OC(C)=O
assay_metric: pest or weed control at 200 ppm
value: ≥ 80%

molecule: COc1ccnc(C(=O)N[C@@H](C)C(=O)OC(C)C(C)c2ncc(Cl)cc2Cl)c1OCOC(=O)C(C)C (stereo partly drawn)
assay_metric: pest or weed control at 200 ppm
value: ≥ 80%

molecule: COc1ccnc(C(=O)N[C@@H](C)C(=O)OC(C)C2(c3ccc(Cl)cc3)CCC2)c1O (stereo partly drawn)
assay_metric: pest or weed control at 200 ppm
value: ≥ 80%

molecule: COc1ccnc(C(=O)N[C@@H](C)C(=O)OC(C)C(C)n2ccc3ccc(C(F)(F)F)cc32)c1O (stereo partly drawn)
assay_metric: pest or weed control at 200 ppm
value: ≥ 80%

molecule: COc1ccnc(C(=O)N[C@@H](C)C(=O)OC(C)C(C)n2ccc3c(Cl)ccc(Cl)c32)c1OC(C)=O (stereo partly drawn)
assay_metric: pest or weed control at 200 ppm
value: ≥ 80%

molecule: COc1ccnc(C(=O)N[C@@H](C)C(=O)O[C@@H](C)C2(c3cccc4ccccc34)CC2)c1OCOC(C)=O
assay_metric: pest or weed control at 200 ppm
value: ≥ 80%

molecule: COc1ccnc(C(=O)N[C@@H](C)C(=O)OC(C)C(C)n2ccc3c(Br)ccc(F)c32)c1O (stereo partly drawn)
assay_metric: pest or weed control at 200 ppm
value: ≥ 80%

molecule: COc1ccnc(C(=O)N[C@@H](C)C(=O)OC(C)C(C)c2ccc3ccccc3n2)c1O (stereo partly drawn)
assay_metric: pest or weed control at 200 ppm
value: ≥ 80%

molecule: COc1ccnc(C(=O)N[C@@H](C)C(=O)OC(C)C2(c3ccccc3)CCCCC2)c1O (stereo partly drawn)
assay_metric: pest or weed control at 200 ppm
value: ≥ 80%

molecule: COc1ccnc(C(=O)N[C@@H](C)C(=O)OC(C)C(C)n2ccc3cccc(Br)c32)c1O (stereo partly drawn)
assay_metric: pest or weed control at 200 ppm
value: ≥ 80%

molecule: COc1ccnc(C(=O)N[C@@H](C)C(=O)O[C@@H](C)C2(c3cccc4ccccc34)CC2)c1OCOC(=O)C(C)C
assay_metric: pest or weed control at 200 ppm
value: ≥ 80%

molecule: COc1ccnc(C(=O)N[C@@H](C)C(=O)OC(C)C(C)c2ccc(Cl)s2)c1O (stereo partly drawn)
assay_metric: pest or weed control at 200 ppm
value: ≥ 80%

molecule: COc1ccnc(C(=O)N[C@@H](C)C(=O)O[C@@H](C)C2(c3cccc4ccccc34)CC2)c1O
assay_metric: pest or weed control at 200 ppm
value: ≥ 80%

* * *

Test system: Botryotinia fuckeliana (Botrytis cinerea)
experiment: Botryotinia fuckeliana (Botrytis cinerea) / liquid culture (Gray mould)
Format: cell-based
protocol_conditions: 20 ppm in the applied formulation, Vogels broth, 24° C., 3-4 days after application, vs untreated control, read-out: disease control (inhibition of growth, photometric)
compounds and their reported inhibition at 20 ppm

compound: COc1ccnc(C(=O)N[C@@H](C)C(=O)OC(C)C2(c3ccccc3)CCCCC2)c1O (some centres unmarked)
inhibition at 20 ppm: ≥ 80%

compound: COc1ccnc(C(=O)N[C@@H](C)C(=O)O[C@@H](C)C2(c3cccc4ccccc34)CC2)c1OC(C)=O
inhibition at 20 ppm: ≥ 80%

compound: COc1ccnc(C(=O)N[C@@H](C)C(=O)O[C@@H](C)C2(c3cccc4ccccc34)CC2)c1O
inhibition at 20 ppm: ≥ 80%

compound: COc1ccnc(C(=O)N[C@@H](C)C(=O)OC(C)C(C)c2ccc3ccccc3n2)c1O (some centres unmarked)
inhibition at 20 ppm: ≥ 80%

compound: COc1ccnc(C(=O)N[C@@H](C)C(=O)OC(C)C2(c3ccc(Cl)cc3)CCC2)c1O (some centres unmarked)
inhibition at 20 ppm: ≥ 80%

Values were extracted from patent US20220167615A1.
